Value source: patent US7238711

target: CCR5 (human), P51681; assay: biotin-labeled peptide at 10 µM on HOS transformants, 125I-streptavidin
Sequence (P51681 whole entry): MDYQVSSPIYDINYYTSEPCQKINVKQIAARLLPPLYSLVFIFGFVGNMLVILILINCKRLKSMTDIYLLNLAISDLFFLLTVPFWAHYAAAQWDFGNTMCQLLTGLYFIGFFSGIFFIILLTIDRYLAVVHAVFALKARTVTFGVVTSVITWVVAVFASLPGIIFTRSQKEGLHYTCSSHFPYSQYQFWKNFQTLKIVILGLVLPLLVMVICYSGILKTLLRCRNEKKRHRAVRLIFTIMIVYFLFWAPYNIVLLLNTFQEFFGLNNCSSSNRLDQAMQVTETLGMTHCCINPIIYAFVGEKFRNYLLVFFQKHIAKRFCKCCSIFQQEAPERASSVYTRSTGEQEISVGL
No end group written: not given here.
test-readout: Kd

>  <binder>
CLDPKQKWIQC (not fully specified (N-terminus); cysteine pairing not given here) [N-terminal biotin conjugate of the sequence n'-…-c']

>  <test-readout>
Kd

>  <endpoint-result>
> 10 µM

$$$$
